# SYSTEM_NAME: Cytochrome P450 2E1 (Homo sapiens, UniProt P05181); also: in other assays of this panel Not Active means under 50% inhibition at 10 µM
# Sequence (P05181 whole entry): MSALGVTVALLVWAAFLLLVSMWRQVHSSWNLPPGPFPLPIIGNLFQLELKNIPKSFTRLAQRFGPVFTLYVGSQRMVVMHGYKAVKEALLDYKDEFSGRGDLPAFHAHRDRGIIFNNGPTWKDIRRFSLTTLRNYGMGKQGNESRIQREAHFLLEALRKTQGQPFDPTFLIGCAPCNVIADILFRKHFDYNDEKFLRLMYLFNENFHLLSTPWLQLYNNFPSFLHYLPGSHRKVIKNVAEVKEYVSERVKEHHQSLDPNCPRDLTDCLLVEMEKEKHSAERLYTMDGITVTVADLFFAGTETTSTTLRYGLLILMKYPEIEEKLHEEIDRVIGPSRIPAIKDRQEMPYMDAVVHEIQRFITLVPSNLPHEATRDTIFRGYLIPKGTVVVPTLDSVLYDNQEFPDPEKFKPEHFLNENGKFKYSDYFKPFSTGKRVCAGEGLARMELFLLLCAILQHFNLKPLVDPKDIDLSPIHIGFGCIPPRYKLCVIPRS
# ASSAY_CONTEXT: bti-tn-5b1-4
QUANTITY_MEASURED: IC50

{"columns": ["SUBSTANCE", "RESULT_VALUE"],
 "data": [
  ["IVERMECTIN", "Not Active"],
  ["CARBOPLATIN", "Not Active"],
  ["OXALIPLATIN", "Not Active"],
  ["CISPLATIN", "Not Active"],
  ["GOLD SODIUM THIOMALATE", "Not Active"]
]}

###

Below is a list of entries, each paired with its recorded IC50 value.
# SYSTEM_NAME: Muscarinic acetylcholine receptor M4 (Homo sapiens, UniProt P08173); also: in other assays of this panel Not Active means under 50% inhibition at 10 µM
# Sequence (P08173 whole entry): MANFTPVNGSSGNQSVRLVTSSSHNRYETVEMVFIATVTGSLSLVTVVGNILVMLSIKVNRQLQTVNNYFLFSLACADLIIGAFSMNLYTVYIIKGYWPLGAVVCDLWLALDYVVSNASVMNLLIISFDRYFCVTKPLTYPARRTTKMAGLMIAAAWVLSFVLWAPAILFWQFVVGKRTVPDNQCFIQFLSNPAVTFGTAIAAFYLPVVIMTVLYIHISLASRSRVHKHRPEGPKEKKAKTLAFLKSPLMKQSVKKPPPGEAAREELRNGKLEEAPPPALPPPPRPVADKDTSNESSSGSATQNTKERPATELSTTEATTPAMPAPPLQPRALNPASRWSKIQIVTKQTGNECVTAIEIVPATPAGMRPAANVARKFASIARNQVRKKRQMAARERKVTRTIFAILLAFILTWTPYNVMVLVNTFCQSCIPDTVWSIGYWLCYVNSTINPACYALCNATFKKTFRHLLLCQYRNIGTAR
# Assay type: cell membranes, CHO-K1, Membrane
# ASSAY_CONTEXT: read-out: IC50

{"columns": ["MOLECULE", "IC50"],
 "data": [
  ["CN1CCN2c3ccccc3Cc3ccccc3C2C1 (stereo not given) [MIANSERIN]", "2070 nM"],
  ["CN(C)CCCN1c2ccccc2CCc2ccc(Cl)cc21 [CLOMIPRAMINE]", "91 nM"],
  ["Fc1ccc([C@@H]2CCNC[C@H]2COc2ccc3c(c2)OCO3)cc1 [PAROXETINE]", "244 nM"],
  ["COc1ccc(CCN2CCC(Nc3nc4ccccc4n3Cc3ccc(F)cc3)CC2)cc1 [ASTEMIZOLE]", "1860 nM"],
  ["O=C1c2c(O)ccc(O)c2C(=O)c2c(NCCNCCO)ccc(NCCNCCO)c21 [MITOXANTRONE]", "644 nM"]
]}

From: ChEMBL document CHEMBL1909046
